Test system: K. pneumonia ATCC 10031
Format: cell-based, Klebsiella pneumoniae
measurementConditions: ATCC 10031, 24 h
Bridge positions count the residues as written; N and C are the ends. Square brackets hold non-standard residues; d marks the D form. Peptide text beside a SMILES is read from it. Orn = NCCC[C@H](N)C(=O)O
I'd appreciate it if you could supply MIC against K. pneumonia ATCC 10031 values for the items below.
Give bare numbers, in µg/mL.

Check out these entries, answers already filled in.
molecule	targetOrTestSystem	obsValue
CSCC[C@@H]1NC(=O)[C@H](C(C)C)NC(=O)[C@H](C(C)C)NC(=O)[C@H](CC(C)C)NC(=O)[C@H](Cc2c[nH]c3ccccc23)NC(=O)[C@H](C(C)C)NC(=O)[C@@H](NC(=O)[C@H](Cc2c[nH]c3ccccc23)NC(=O)[C@@H](N)CCCNC(=N)N)CSSC[C@@H](C(=O)N[C@@H](CCCCN)C(=O)N[C@@H](CCCCN)C(N)=O)NC1=O [RP513] (H-RWCVWLVVMCKK-NH2; disulfide 3-10)	K. pneumonia ATCC 10031	128
CC[C@H](C)[C@H](NC(=O)[C@H](CCCN)NC(=O)[C@H](C)NC(=O)[C@H](CCCN)NC(=O)[C@H](CC(C)C)NC(=O)[C@H](CCCN)NC(=O)[C@@H](NC(=O)[C@H](CCCN)NC(=O)[C@@H](NC(=O)[C@H](CCCN)NC(=O)[C@H](C)NC(=O)[C@H](CCCN)NC(=O)[C@H](CC(C)C)NC(=O)[C@H](CCCN)NC(=O)[C@@H](N)Cc1ccccc1)[C@@H](C)CC)C(C)C)C(=O)N[C@@H](CCCN)C(=O)N[C@@H](CC(C)C)C(N)=O [RP554] (H-F[Orn]L[Orn]A[Orn]I[Orn]V[Orn]L[Orn]A[Orn]I[Orn]L-NH2)	K. pneumonia ATCC 10031	8

Shifting focus to the molecule that follows.
Lookup: Quick one: MIC against K. pneumonia ATCC 10031 for CC[C@H](C)[C@H](NC(=O)[C@H](CCCCN)NC(=O)[C@H](CC(C)C)NC(=O)[C@H](CCCN)NC(=O)[C@H](CC(C)C)NC(=O)[C@H](CCCNC(=N)N)NC(=O)[C@H](C)NC(=O)[C@H](CCCNC(=N)N)NC(=O)[C@@H](NC(=O)[C@H](CCCN)NC(=O)[C@H](Cc1ccccc1)NC(=O)[C@H](CCCNC(=N)N)NC(=O)[C@H](C)NC(=O)[C@H](CCCCN)NC(=O)[C@@H](NC(=O)[C@H](CCCN)NC(=O)[C@@H](N)Cc1ccccc1)[C@@H](C)CC)C(C)C)C(N)=O [RP553] (H-F[Orn]IKARF[Orn]VRARL[Orn]LKI-NH2) ?
Found: 4
